Test system: Es-2
Assay: Primary qHTS to identify gynecologic anti-cancer compounds using libraries of approved drugs and bioactive compounds (AID 1345084); further: nearly all actives have a fitted effect of over 55% in size
Settings: Gynecologic cancer cell panel viability, ATPlite luminescence, 48 h; series mostly up to 57.5 µM
Results filed as inconclusive are left out. Active and inactive are the calls of the source. The call rests on the fitted dose curve; in most records, active means well fitted cell-killing curve with a large enough effect; inconclusive means small, poorly fitted or top-dose-only effect, or effect the other way; inactive means flat fitted curve, though single readings scatter.
Bench note: report the call from YES for active, NO for inactive

# fetch the recorded call for CN1c2ccccc2C(=O)N2CCc3c([nH]c4ccccc34)C21 (stereo not drawn) here
YES

# fetch the recorded call for `CN1CCC(COc2cnc(-c3cccc(Cn4nc(-c5cccc(C#N)c5)ccc4=O)c3)nc2)CC1` here
NO

# fetch the recorded call for `CC(C)(OCc1nn(Cc2ccccc2)c2ccccc12)C(=O)O` here
NO

# fetch the recorded call for `CNC(=O)c1c(-c2ccc(F)cc2)oc2cc(N(CCO)S(C)(=O)=O)c(C3CC3)cc12` here
NO

# fetch the recorded call for `COc1nc(C)cnc1NS(=O)(=O)c1cccnc1-c1ccc(-c2nnco2)cc1` here
NO

# fetch the recorded call for `O=C(O)CCNc1cc(N2CCc3ccccc3CC2)nc(-c2ccccn2)n1` here
NO

# fetch the recorded call for `O=C(c1ccc(C(=O)N2CCC(N3CCCC3)CC2)c(Nc2ccccc2)c1)N1CCC(N2CCCC2)CC1` here
NO

# fetch the recorded call for Cc1cc(C(C)Nc2ccccc2)c2nc(N3CCOCC3)cc(=O)n2c1 (stereo not drawn) here
NO

# fetch the recorded call for `NS(=O)(=O)c1cc(Cl)c(Cl)c(S(N)(=O)=O)c1` here
NO

# fetch the recorded call for `Cc1cnc(-c2cc(N3CCN(C(=O)CCS(C)(=O)=O)CC3)ncc2Cl)c(C)c1` here
NO

# fetch the recorded call for `CCCCC(F)(F)[C@@]1(O)CC[C@H]2[C@H](CC(=O)[C@@H]2CCCCCCC(=O)O)O1` here
NO

# fetch the recorded call for CC1=C(C(=O)Nc2cc3cn[nH]c3cc2F)C(c2ccc(C(F)(F)F)cc2)CC(=O)N1 (stereo not drawn) here
NO

# fetch the recorded call for `CCn1c(-c2nonc2N)nc2cncc(CNC3CCNCC3)c21` here
NO

# fetch the recorded call for `CC1(COc2ccc3c(c2)ncn3-c2ccc3cccc(N4CCC(N)CC4)c3n2)COC1` here
YES

# fetch the recorded call for `C[C@@]1(C(=O)Nc2ccc(F)nc2)CCCN1c1nc(Nc2cc(C3CC3)[nH]n2)c2cccn2n1` here
NO

# fetch the recorded call for `CS(=O)(=O)c1ccc(C2=C(c3ccccc3)C(=O)OC2)cc1` here
NO

# fetch the recorded call for `Fc1ccc(CNc2ncnc3ccc(F)cc23)cc1` here
NO

# fetch the recorded call for `Cc1c(C(=O)Nc2ccc(N3C[C@@H](C)O[C@@H](C)C3)nc2)cccc1-c1ccc(OC(F)(F)F)cc1` here
NO

====

Assay: P-glycoprotein substrates identified in KB-8-5-11 adenocarcinoma cell line, qHTS therapeutic library screen (AID 1346987); further: nearly all actives have a fitted effect of over 65% in size
Details: KB-8-5-11 (P-gp overexpressing) viability, CellTiter-Glo, 72 h; series mostly up to 44.5 µM
Inconclusive results are not listed. Active and inactive are the calls of the source. The call rests on the fitted dose curve; in most records, active means well fitted inhibition curve with a large enough effect; inconclusive means small, poorly fitted or top-dose-only effect; inactive means flat fitted curve, though single readings scatter.
Bench note: report the call from TRUE for active, FALSE for inactive

# fetch the recorded call for `CCN(CCO)CCCOc1ccc2c(Nc3cc(CC(=O)Nc4cccc(F)c4)[nH]n3)ncnc2c1` here
FALSE

# fetch the recorded call for CCOC(=O)[C@H](CCc1ccccc1)N[C@@H](C)C(=O)N1CCCC1C(=O)O (stereo not given in full) here
FALSE

# fetch the recorded call for `Cc1ccc(NC(=O)Nc2cc(C(F)(F)F)ccc2F)cc1Nc1ccc2c(c1)NC(=O)C2=Cc1ccc[nH]1` here
TRUE

# fetch the recorded call for `O=C(NCCCCN1CCOCC1)c1cc2ccccc2o1` here
FALSE

# fetch the recorded call for `Cc1nc2c([nH]1)CCN(C(=O)c1ccc(NC(=O)c3ccccc3-c3ccccc3)cc1)c1ccccc1-2` here
FALSE
